- Protocol summary: Toxicity liver stage against HepG2, at 10uM
- Assay type: cell-based
- Design: test concentration 10 uM, cell line HepG2-A16-CD81EGFP
- Particulars: human, HepG2-A16-CD81EGFP cells; read-out: INHIBITION
Consider the following compounds and their measured cytotoxicity at 10 µM readings.

Compound	Measurement units	cytotoxicity at 10 µM
O=C1CC(c2ccc(C(=O)O)cc2)c2cnn(Cc3ccco3)c2N1 (centres undefined)	%	-0.869
Cc1ccc(C(=O)N2C[C@H]3CCC[C@@]3(COCC3CCOCC3)C2)o1	%	-66.3
CC(C)c1nc(CN(C)C(=O)C(O)c2ccc(Cl)cc2)cs1 (centres undefined)	%	-150
CCN1CCCC1CNCc1cc2cc(C)c(C)cc2[nH]c1=O (centres undefined)	%	-6.69
Cc1nccn1Cc1nnc(C2CCCN(Cc3ccncc3)C2)n1C (centres undefined)	%	-1.63
Cc1cc(C2CCCN2Cc2ccn(C)c(=O)c2)no1 (centres undefined)	%	-9.03
CCc1cccc(OCCCN(C)C(=O)CN2CCNC2=O)c1	%	-2.48
NC(=O)NC(=O)CCN1CCC(C(=O)c2cc(F)ccc2F)CC1	%	9.69
CC(=O)NCCCNCc1cc(F)ccc1Br	%	-0.595
CSCC[C@H](NC(=O)CCn1cc(C(C)=O)c2ccccc21)C(=O)O	%	-3.91
O=C1CCC2(CCOC2)CN1Cc1ccc2nsnc2c1 (centres undefined)	%	-7.73
CC(C)c1ccc(CCC(=O)N(C)C2CCN(C)C2=O)cc1 (centres undefined)	%	-7.79
CN(Cc1cc(Br)cn1C)C(=O)c1cccnc1	%	-5.95
O=C(NCc1ccco1)N1CCCCC1c1nc(-c2ccncc2)no1 (centres undefined)	%	-7.92
